Source: patent US9181273B2

Give IC50 for every item shown.
- target_under_test: human NaV subtype, like NaV 1.7 (Homo sapiens, UniProt Q15858)
- Sequence (Q15858 whole entry): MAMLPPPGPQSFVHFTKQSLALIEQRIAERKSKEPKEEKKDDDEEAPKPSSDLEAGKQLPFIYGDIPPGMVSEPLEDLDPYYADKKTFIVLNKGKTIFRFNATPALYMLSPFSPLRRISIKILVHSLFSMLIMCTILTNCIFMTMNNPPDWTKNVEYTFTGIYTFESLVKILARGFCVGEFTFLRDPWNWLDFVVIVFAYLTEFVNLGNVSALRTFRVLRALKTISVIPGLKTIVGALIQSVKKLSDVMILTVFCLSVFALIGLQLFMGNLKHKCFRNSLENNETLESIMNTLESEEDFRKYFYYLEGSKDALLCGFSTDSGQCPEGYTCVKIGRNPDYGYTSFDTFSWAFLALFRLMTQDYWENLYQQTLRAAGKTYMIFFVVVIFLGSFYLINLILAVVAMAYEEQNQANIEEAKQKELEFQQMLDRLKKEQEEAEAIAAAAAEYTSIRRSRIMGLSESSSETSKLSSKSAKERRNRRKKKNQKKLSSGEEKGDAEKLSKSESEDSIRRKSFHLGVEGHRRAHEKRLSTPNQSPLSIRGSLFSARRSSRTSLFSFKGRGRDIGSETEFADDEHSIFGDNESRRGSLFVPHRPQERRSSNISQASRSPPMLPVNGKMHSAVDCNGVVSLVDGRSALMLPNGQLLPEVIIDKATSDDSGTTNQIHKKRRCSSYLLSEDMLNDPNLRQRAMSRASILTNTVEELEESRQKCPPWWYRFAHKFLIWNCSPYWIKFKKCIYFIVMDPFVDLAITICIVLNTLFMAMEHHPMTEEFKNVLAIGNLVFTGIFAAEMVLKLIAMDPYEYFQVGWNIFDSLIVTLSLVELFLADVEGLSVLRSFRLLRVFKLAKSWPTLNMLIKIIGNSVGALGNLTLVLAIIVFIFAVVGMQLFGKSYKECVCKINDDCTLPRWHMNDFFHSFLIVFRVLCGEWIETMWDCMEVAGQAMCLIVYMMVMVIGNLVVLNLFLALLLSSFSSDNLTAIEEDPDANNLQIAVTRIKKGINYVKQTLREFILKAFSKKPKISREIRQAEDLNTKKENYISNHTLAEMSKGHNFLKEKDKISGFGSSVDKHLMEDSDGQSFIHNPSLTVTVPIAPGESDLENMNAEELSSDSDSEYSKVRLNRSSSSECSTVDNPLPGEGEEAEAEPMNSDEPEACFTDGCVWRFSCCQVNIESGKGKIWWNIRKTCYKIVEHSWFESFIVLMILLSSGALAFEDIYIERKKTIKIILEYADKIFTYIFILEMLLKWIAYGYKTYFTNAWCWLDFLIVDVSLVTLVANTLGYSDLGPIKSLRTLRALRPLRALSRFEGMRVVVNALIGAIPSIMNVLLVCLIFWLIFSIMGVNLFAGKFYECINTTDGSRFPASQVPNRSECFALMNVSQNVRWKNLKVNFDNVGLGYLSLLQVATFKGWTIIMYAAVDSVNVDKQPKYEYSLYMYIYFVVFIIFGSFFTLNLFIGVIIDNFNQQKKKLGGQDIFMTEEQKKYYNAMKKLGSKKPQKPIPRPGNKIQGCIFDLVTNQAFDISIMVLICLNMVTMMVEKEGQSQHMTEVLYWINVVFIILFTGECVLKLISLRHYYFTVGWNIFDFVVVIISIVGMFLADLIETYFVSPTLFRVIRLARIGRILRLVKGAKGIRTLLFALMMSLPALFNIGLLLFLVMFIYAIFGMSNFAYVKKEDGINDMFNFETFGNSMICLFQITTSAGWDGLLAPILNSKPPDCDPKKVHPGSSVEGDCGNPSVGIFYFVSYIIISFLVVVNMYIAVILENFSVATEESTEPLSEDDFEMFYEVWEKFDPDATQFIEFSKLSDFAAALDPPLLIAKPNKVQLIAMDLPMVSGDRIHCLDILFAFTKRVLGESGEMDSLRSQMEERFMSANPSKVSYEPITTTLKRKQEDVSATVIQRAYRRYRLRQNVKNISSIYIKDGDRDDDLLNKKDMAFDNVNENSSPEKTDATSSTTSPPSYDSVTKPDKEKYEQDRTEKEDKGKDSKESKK
- test: E-VIPR optical membrane potential assay with electrical stimulation
- Format: cell-based
- measurement_context: active against one or more sodium channels; assay and NaV subtype not specified for Table 3; read-out: IC50 Binned Activity Data

Problem: Endpoint output: IC50 of COCC1CN(Cc2ccccn2)CC2(CCN(C(=O)c3ccc(OC(C)C)c(C)c3)CC2)O1 (centres unmarked) [Compound 14] . Value?
Result: > 5000 nM

Problem: Endpoint output: IC50 of COc1cc(C(=O)N2CCC3(CC2)CN(CC(F)F)CC(c2cc[nH]n2)O3)ccc1OC(C)C (centres unmarked) [Compound 210] . Value?
Result: > 5000 nM

Problem: Endpoint output: IC50 of COCC1CN(Cc2nccs2)CC2(CCN(C(=O)c3ccc(OC(C)C)c(C)c3)CC2)O1 (centres unmarked) [Compound 252] . Value?
Result: 2000 to 5000 nM

Problem: Endpoint output: IC50 of COCC1CN(c2ncccn2)CC2(CCN(C(=O)c3ccc(C(C)(C)O)c(F)c3)CC2)O1 (centres unmarked) [Compound 53] . Value?
Result: 2000 to 5000 nM

Problem: Endpoint output: IC50 of CC(C)Oc1ccc(C(=O)N2CCC3(CC2)CN(CC(F)(F)F)CC(c2cc[nH]n2)O3)cc1Cl (centres unmarked) [Compound 110] . Value?
Result: < 2000 nM

Problem: Endpoint output: IC50 of COCC1CN(c2cccnc2)CC2(CCN(C(=O)c3ccc(OC(C)C)c(C)c3)CC2)O1 (centres unmarked) [Compound 291] . Value?
Result: < 2000 nM

Problem: Endpoint output: IC50 of COCC1CN(C2CCC[C@@H](C)C2)CC2(CCN(C(=O)c3ccc(OC(C)C)c(C)c3)CC2)O1 (some centres unmarked) [Compound 232] . Value?
Result: < 2000 nM

Problem: Endpoint output: IC50 of Cc1nc(C(=O)N2CCC3(CC2)CN(CC#N)CC(c2ccccc2)O3)ccc1OC(C)C (centres unmarked) [Compound 212] . Value?
Result: < 2000 nM
